Reference source for all entries: the MegaScale stability set (Tsuboyama et al. 2023)

B1: EHEE_rd2_0191 (parent)
chain: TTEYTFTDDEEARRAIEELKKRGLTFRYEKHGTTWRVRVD

variants of: B1; experiment: folding stability dG (cDNA display proteolysis); higher = more stable; settings: PBS, room temperature
MEASUREMENT NAME: folding stability dG (kcal/mol)
Return type: number; implicit unit kcal/mol.

Could you share which folding stability dG value was measured for `T1M` ? 2.21

Any idea what folding stability dG was measured for `E18Q` ? 1.97

Would you mind telling me what folding stability dG value was observed for `T7W` ? 1.89

Could you tell me which folding stability dG is on file for `K21R` ? 2.35

Consider the variant `E10F` and give its measured folding stability dG. 1.98

Query: folding stability dG; subject: `L24N` 0.838

Find the recorded folding stability dG belonging to `W35V` and report it. 1.44

I would be grateful if you could share the reported folding stability dG for `R14K` . 2.12

Fill blank: measured folding stability dG of the variant `W35M` is ____. 0.84

Name the recorded folding stability dG for `R36F` . 3.02

Quick one: folding stability dG of `R36Q` ? 1.54

What does the data say about its folding stability dG? Entry: `T7C` 2.34

So what's the measured folding stability dG for this one? `K21G` 1.45

Need folding stability dG of `E17G` , thanks. 1.71

Given the entry `W35A` , report its measured folding stability dG. -0.575

What does the record list as folding stability dG for `D40K` ? 1.9

Form field: reported folding stability dG of `E11Q` 2.1

Give its folding stability dG value. Item: `K21F` 1.63

Fill blank: measured folding stability dG of the variant `E10G` is ____. 2.07

What folding stability dG value was documented for this variant, `D40G` ? 2.1

Return reported folding stability dG; argument: `Y28M` 1.86

So what does the record say about folding stability dG for `T2M` ? 2.2
